Exercise: for every item that follows, state its recorded growth inhibition.
assay: NCI Yeast Anticancer Drug Screen. Data for the mec2-1 strain (AID 157); settings: S. cerevisiae mec2-1 strain, at 5.0 µM (retest, dose inferred, filed as 0.5), active compounds read high
About 79,000 compounds went through this panel and 15% of them were active in at least one assay; those are over-represented in the sample as a whole.
One number for each entry, in %.

Below are worked cases with known answers.
molecule	display_unit	growth inhibition
CCCCCCC1CC2(Cl)C(Cl)=C(Cl)C1(Cl)C2(Cl)Cl (stereo unspecified)	%	34
C[n+]1[se]nc2cc(C(=O)c3ccccc3)ccc21 (tested in a mixture with another compound)	%	99
N#CN(Cc1ccccc1)C(c1ccccc1)(c1ccccc1)c1ccccc1.[Cl][Sn]([c]1ccccc1)([c]1ccccc1)[c]1ccccc1	%	100

Provide each entry's growth inhibition from the list below.
1. COC(=O)[C@@]12OC[C@]34[C@H]([C@@H](O)[C@@H]1O)[C@@]1(C)CC(=O)C(O)=C(C)[C@@H]1C[C@H]3OC(=O)[C@H](OC(=O)/C=C(\C)C(C)C)[C@@H]24
2. CC1=[N+](Cc2cc(C)cc(C)c2O)CCCC1
3. CC1=C(O)C(=O)C=C2C1=CC=C1[C@@]2(C)CCC2(C)[C@@H]3C[C@@H](C)C(=O)C[C@]3(C)CC[C@]12C (stereo partly specified)
4. C1CC[CH]([Sn]([CH]2CCCCC2)[CH]2CCCCC2)CC1.C1CC[CH]([Sn]([CH]2CCCCC2)[CH]2CCCCC2)CC1
5. CC(C)(C)C[CH2][Hg][Cl]
6. CCC1(C2=CCCCC2)C(=O)NC(=S)NC1=O
7. CC1(O)CC([CH2][Hg][I])OC([CH2][Hg][I])C1 (stereo unspecified)
8. CC(O)([CH2][Hg][Cl])C(O)[CH2][Hg][Cl] (stereo unspecified)

1. 95
2. -8
3. 4
4. 0
5. 100
6. -11
7. 99
8. 99

Provide each entry's growth inhibition from the list below.
1. N#CC(Nc1c(N)nc(-c2ccccc2)nc1N)c1ccc(N(CCCl)CCCl)cc1 (stereo unspecified)
2. COc1cc(C=Nc2cc[c]([Hg][O]C(C)=O)cc2)ccc1O

-18
-1

Provide each entry's growth inhibition from the list below.
1. Oc1ccc2ccccc2c1O
2. S=C(S)N1CCOCC1
3. COc1cc(C(c2c(O)c3ccccc3oc2=O)c2c(O)c3ccccc3oc2=O)cc(OC)c1O

1. 3
2. 50
3. -2

Provide each entry's growth inhibition from the list below.
1. Cc1cc(N(C)C)c2ccccc2[n+]1CCCCCCCCCC[n+]1c(C)cc(N(C)C)c2ccccc21
2. CN1CN(c2ccccc2)C2(CCN(C3Nc4ccccc4O3)CC2)C1=O (stereo unspecified)
3. NC(Cc1c[nH]c2ccccc12)P(=O)(O)O (stereo unspecified)
4. O=[N+]([O-])c1ccc([Se]CCBr)c([N+](=O)[O-])c1
5. Nc1c(Cl)cccc1C(=O)O

98
2
0
1
-2

---

assay: NCI Yeast Anticancer Drug Screen. Data for the cln2 rad14 strain (AID 165);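 also: 0% = growth equal to vehicle treated cultures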; details: S. cerevisiae cln2 rad14 strain, at 50.0 µM, active compounds read high
Compounds without any hit were thinned out: in the full panel of roughly 79,000, 15% have a hit.
Param threshold (90%) applies to growth inhibition; output T when value >= threshold, F when value < threshold.

# example entries with known answers
compound	cat
CN1c2cccc[c]2[Sn]([CH3])([CH3])[c]2ccccc21	T
CC(Cl)CNC(C)C (stereo not drawn)	F
Cc1ccc(S)cc1.[Pb]	F
CSc1ccc2c(c1)c(CCN)c(C)n2Cc1ccccc1Cl	T
O=[N+]([O-])O.O=[N+]([O-])O.[NH-]C1CCCCC1[NH-].[Pt+2] (stereo not drawn)	F
COC(=O)C1=C(C(=O)OC)SC2(S1)C(C(=O)OC)=C(C(=O)OC)Sc1c2ssc1=O	F

Test whether the compound O=[N+]([O-])c1ccc(N2CCC(CCCC3CCN(c4ccc([N+](=O)[O-])cc4[N+](=O)[O-])CC3)CC2)c([N+](=O)[O-])c1 records growth inhibition of 90% or higher.
F

Test whether the compound Cc1ccc2c(c1N)C(=O)c1ccccc1C2=O records growth inhibition of 90% or higher.
F

Test whether the compound C1CC[N-]CC1.[Cl][Au]([Cl])[Cl] records growth inhibition of 90% or higher.
F

Test whether the compound Cc1ccc(S(=O)(=O)OC2CCC3C4CC=C5CC(SC(=N)N)CCC5(C)C4CCC23C)cc1 (stereo not drawn) records growth inhibition of 90% or higher.
F

Test whether the compound O=c1c(O)c(-c2ccccc2)oc2ccccc12.[Pb] records growth inhibition of 90% or higher.
F

Test whether the compound S=P(Nc1ccccc1)(Nc1ccccc1)Nc1ccccc1 records growth inhibition of 90% or higher.
T

---

experiment: NCI Yeast Anticancer Drug Screen. Data for the wt1 strain (AID 149);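 also: 0% = growth of vehicle-treated wt1 cultures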; conditions: S. cerevisiae wt1 strain (SPY 50644) growth inhibition; at 1.2 µM; active compounds read high
Compounds without any hit were thinned out: in the full panel of roughly 79,000, 15% have a hit.
quantity_kind: growth inhibition (%)
Answers are plain numbers, in %.

Below are worked cases with known answers.
>>> print(df.to_string())
                                   molecule      quantity_kind  endpoint_value
0  C/C(CCl)=N/NC1=NC(c2ccccc2Cl)P(=O)(NCCCNP2(=O)SC(N/N=C(/C)CCl)=NC2c2ccccc2Cl)S1 (stereo unspecified)  growth inhibition               3
1  Cn1cc(NC(=O)c2cc(NC(=O)CN=C(N)N)cn2C)cc1C(=O)NCCC(=N)N  growth inhibition              17
2        O=[N+]([O-])c1oc2ccc3ccccc3c2c1CCO  growth inhibition               2
3  C[N+]1(CCCl)CC[N+](C)(CCCl)CC1 (stereo unspecified)  growth inhibition               0
4               O=S(=O)(O)c1ccc(Cl)cc1.[Cd]  growth inhibition               2
5  CSC(=Nc1ccccc1)N(c1ccccc1)c1nc(=[N+](C)C)ss1  growth inhibition              -2
6     CC1CC(Br)C(=O)O1 (stereo unspecified)  growth inhibition             -48
7  CC1(Cl)CC(C)(/C=C/Cl)C(Cl)CC1Cl (stereo unspecified)  growth inhibition               3
8  CCCCCCCCCCCCCCCCP(=O)(O)OCC(N)C(=O)O (stereo unspecified)  growth inhibition             -38
9  N#Cc1cc(N(CCCl)CCCl)c([N+](=O)[O-])cc1[N+](=O)[O-]  growth inhibition              -6

Query molecule follows.
I'd like to know its growth inhibition. The molecule in question is O=C(O)C1C2c3ccccc3C(c3ccccc32)C1C(=O)O (stereo unspecified)
-3

---

test: NCI Yeast Anticancer Drug Screen. Data for the mec2-1 strain (AID 157); conditions: S. cerevisiae mec2-1 strain, at 5.0 µM (retest, dose inferred, filed as 0.5), active compounds read high
Compounds without any hit were thinned out: in the full panel of roughly 79,000, 15% have a hit.
Param threshold (20%) applies to growth inhibition; output 1.0 when value >= threshold, 0.0 when value < threshold.

# example entries with known answers
compound	cat
CCCCCC(Cn1ccnc1)c1ccc(Cl)cc1Cl (stereo not given)	1.0
O=C1NC(=O)C(C(c2ccnc3ccccc23)C2C(=O)NC(=O)NC2=O)C(=O)N1	0.0
CCCCN(C)CC(C(C)=O)C(c1ccccc1)c1c(O)c2ccccc2oc1=O (stereo not given)	0.0
CCOP(=O)(Oc1ccc([N+](=O)[O-])cc1)c1ccccc1C(C)C (stereo not given)	1.0
COc1cc(C=Nc2ccc(-c3csc(COc4ccccc4)n3)cc2)ccc1N(CCCl)CCCl	0.0

Test whether the compound C/C1=C\[C@@H](O)C(=O)/C=C/C=C\c2csc(n2)[C@@H](C)NC(=O)C[C@@]2(CC1)S(=O)SC(=O)[C@]2(C)O (stereo not given in full) records growth inhibition of 20% or higher.
1.0

Test whether the compound FC(F)(F)c1nc2ccc(SSc3ccc4nc(C(F)(F)F)[nH]c4c3)cc2[nH]1 records growth inhibition of 20% or higher.
0.0

Test whether the compound C=C(CC(=O)O)C(=O)O (tested in a mixture with another compound) records growth inhibition of 20% or higher.
0.0

---

experiment: NCI Yeast Anticancer Drug Screen. Data for the rad50EPP+ strain (AID 151);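 also: 0% = growth of vehicle-treated control cultures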; conditions: S. cerevisiae rad50 mutant strain, at 1.2 µM, active compounds read high
The panel holds about 79,000 compounds, 15% with a hit somewhere; the sample as a whole holds those more often.
quantity_kind: growth inhibition (%)
Give bare numbers, in %.

compound	growth inhibition [%]
C[C@]12CCC3[C@@H](CC[C@@H]4c5nonc5CC[C@]34C)C1CCC2=O (stereo partly drawn)	4
Cn1cc(NC(=O)c2cc(NC(=O)CN=C(N)N)cn2C)cc1C(=O)NCCC(=N)N	19
O=S(=O)(O)/C(=C\c1ccccc1)c1ccccc1 (tested in a mixture with another compound)	-3
COC(=O)c1c(C)ccc2c(O)c3c(cc12)C(=O)c1c2c(cc(O)c1C3=O)C1(C)OC(C)(O2)C(O)C(N(C)C)C1O (stereo not drawn)	-2

Provide each entry's growth inhibition from the list below.
1. CCCN(CCC)c1c([N+](=O)[O-])cc(S(N)(=O)=O)cc1[N+](=O)[O-]
2. CN(C)CCSC1=Nc2ccc(Cl)cc2C(c2ccccc2Cl)=NC1
3. Cc1cc[n+](C2=C(Nc3cccc(C(F)(F)F)c3)C(=O)c3ccccc3C2=O)cc1
4. COc1cccc2c1C(=O)c1c(O)c3c(c(O)c1C2=O)C[C@@](O)(/C(C)=N\O)C[C@@H]3OC1CC(N)C(O)C(C)O1 (stereo partly drawn)
5. CC1=C[C@H]2O[C@@H]3C[C@H]4OC(=O)/C=C\C=C\C(C(C)O)OCC(O)C(C)CC(=O)OC[C@@]2(C[C@@H]1O)[C@]4(C)[C@@]31CO1 (stereo partly drawn)
6. CCNCC(=O)O[C@]1(CC)C(=O)OCc2c1cc1n(c2=O)Cc2cc3ccccc3nc2-1
7. CCCCCNC(=O)c1c(O)[nH]c(=S)[nH]c1=O
8. COC(=O)C1c2cc3c(c(O)c2C(O)CC1(C)O)C(=O)c1c(O)cc2c(c1C3=O)OC1OC2(C)C(O)C(N(C)C)C1O (stereo not drawn)

1. -23
2. -3
3. 7
4. 7
5. -29
6. 35
7. -25
8. -1

Provide each entry's growth inhibition from the list below.
1. O=[N+]([O-])c1ccc(N2CCC(CCCC3CCN(c4ccc([N+](=O)[O-])cc4[N+](=O)[O-])CC3)CC2)c([N+](=O)[O-])c1
2. CCN(CCCl)CCCCNc1c2ccccc2nc2ccc(OC)cc12
3. CNC(=O)OCC1C2=C(C(=O)C(C)=C(N)C2=O)N2CC3C(N3C)C12OC (stereo not drawn)

[-6, 18, 0]

Provide each entry's growth inhibition from the list below.
1. NNc1ccccc1Cl
2. COC1C(O)C(C)OC(OC2C(Oc3cccc4c(O)c5c(=O)oc6ccc(C)c7c(=O)oc(c34)c5c67)OC(C)C(O)C2O)C1O (stereo not drawn)
3. CNC(=O)ON(C(C)=O)C(=O)NC

1: 56; 2: 7; 3: -19
